Data provenance is paper PMC8624523.

- EXPERIMENT: Pharmacokinetic analysis in C57BL/6 mice after gavage administration
- Assay type: in vivo
- RUN PARAMETERS: male, mouse, plasma, po, 10 mg/kg gavage, 0.5% MC, mean ± SEM of four mice
PROPERTY: half-life (h)

> print(dat)
                                   molecule   property  reported.value
1  Cc1ccc2c(c1)CCCN2C(=O)COc1ccc(C(C)CC(=O)O)cc1 (centres unmarked) [Compound 11b]  half-life            1.78
2  Cc1ccc2c(c1)CCCN2C(=O)COc1ccc(OCC(=O)O)c(C)c1 [Compound 11g]  half-life            1.52
